- target_entity: T1, EsCas13d, nuclease-dead (Eubacterium siraeum, UniProt B0MS50, R295A;H300A;R849A;H854A)
- T1 sequence: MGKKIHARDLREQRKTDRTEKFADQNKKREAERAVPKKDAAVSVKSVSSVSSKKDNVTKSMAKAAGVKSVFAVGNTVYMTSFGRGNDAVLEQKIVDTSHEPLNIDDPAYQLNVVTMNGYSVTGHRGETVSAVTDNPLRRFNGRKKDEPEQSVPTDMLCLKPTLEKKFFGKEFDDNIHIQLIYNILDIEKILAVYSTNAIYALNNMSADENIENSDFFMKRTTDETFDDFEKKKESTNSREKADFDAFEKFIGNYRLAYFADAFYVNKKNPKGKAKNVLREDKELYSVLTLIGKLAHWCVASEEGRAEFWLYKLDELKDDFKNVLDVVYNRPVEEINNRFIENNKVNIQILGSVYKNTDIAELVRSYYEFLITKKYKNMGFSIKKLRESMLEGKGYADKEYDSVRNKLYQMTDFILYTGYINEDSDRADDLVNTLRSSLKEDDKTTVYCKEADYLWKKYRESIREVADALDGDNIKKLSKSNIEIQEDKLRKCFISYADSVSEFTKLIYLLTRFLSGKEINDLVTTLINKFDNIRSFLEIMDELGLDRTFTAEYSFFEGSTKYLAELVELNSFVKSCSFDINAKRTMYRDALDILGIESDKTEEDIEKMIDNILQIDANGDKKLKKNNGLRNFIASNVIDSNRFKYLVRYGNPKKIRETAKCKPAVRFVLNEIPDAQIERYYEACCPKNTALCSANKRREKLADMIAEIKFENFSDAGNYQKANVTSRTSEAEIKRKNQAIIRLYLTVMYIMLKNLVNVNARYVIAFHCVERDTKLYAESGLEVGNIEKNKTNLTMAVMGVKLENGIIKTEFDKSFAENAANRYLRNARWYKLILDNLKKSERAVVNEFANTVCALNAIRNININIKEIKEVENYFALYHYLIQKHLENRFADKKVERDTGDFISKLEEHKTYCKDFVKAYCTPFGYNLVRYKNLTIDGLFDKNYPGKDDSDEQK
- assay_details: crRNA (strand 1, pre-loaded); Mg2+; 40 mM Tris-HCl pH 7.5, 150 mM NaCl, 6 mM MgCl2, 1 mM DTT, 0.1% Tween-20, 0.2 mg/ml BSA; 25 C; 10 min per concentration, then washed
- details: tags: His6-TwinStrep-SUMO cleaved; N-terminal SNAP kept (SNAP-Surface 488); label: 3' end held by stalled T7 RNA polymerase
pKd: −log10 of the molar value.
quantity_measured: pKd

binder	value_measured
target 2 MT 5'PFS GAC 3'PFS UAU (mixed) RNA 1: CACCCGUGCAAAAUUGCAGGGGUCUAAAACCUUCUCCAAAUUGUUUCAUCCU RNA 2: GGGAAUGGAUCCACAUCUACGAAUUCGACAGGAUGAAACAAUUUGGAGAAGUAUAGAUCGGAAGAGCACACGU	7.97
target 1 insG 3' of 18,insG 3' of 3 (mixed) RNA 1: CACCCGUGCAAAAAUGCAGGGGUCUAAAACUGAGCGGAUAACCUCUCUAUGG RNA 2: GGGAAUGGAUCCACAUCUACGAAUUCGUACCAUAGGAGAGGUUAUCCGCUGCACCGAGAUCGGAAGAGCACACGU	7.40
target 1 insA 3' of 13,insG 3' of 11 (mixed) RNA 1: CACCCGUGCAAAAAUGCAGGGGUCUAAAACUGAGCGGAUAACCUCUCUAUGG RNA 2: GGGAAUGGAUCCACAUCUACGAAUUCGUACCAUAGAGAGAGUGUAUCCGCUCACCGAGAUCGGAAGAGCACACGU	7.88
target 1 insA 3' of 15,insU 3' of 9 (mixed) RNA 1: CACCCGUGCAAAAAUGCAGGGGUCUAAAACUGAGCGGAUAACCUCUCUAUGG RNA 2: GGGAAUGGAUCCACAUCUACGAAUUCGUACCAUAGAGAAGGUUAUUCCGCUCACCGAGAUCGGAAGAGCACACGU	7.61
